Catalogue of compounds with associated log1/Ki
- method: Binding affinity to chymotrypsin (unknown origin)
- recorded.conditions: Homo sapiens
Write the value as a bare number.

Solved entries (count: 8):
INSERT INTO assay_data (item_smiles, measurement_kind, quantitative_readout) VALUES
  ('CCOC(=O)[C@@H](Cc1ccc(O)cc1)NC(C)=O', 'log1/Ki', 2.4),
  ('CCC[C@@H](NC(C)=O)C(=O)OC', 'log1/Ki', 0.95),
  ('CCC[C@@H](NC(=O)CCl)C(=O)OC', 'log1/Ki', 1.23),
  ('COC(=O)[C@H](NC(=O)CCl)C(C)C', 'log1/Ki', 0.77),
  ('COC(=O)[C@@H](Cc1ccccc1)NC(C)=O', 'log1/Ki', 2.64),
  ('COC(=O)[C@H](NC(C)=O)C(C)C', 'log1/Ki', 0.71),
  ('COC(=O)[C@H](NC(=O)c1ccccc1)C(C)C', 'log1/Ki', 2.28),
  ('CCC[C@@H](NC(=O)c1ccccc1)C(=O)OC', 'log1/Ki', 2.75);

Now, please, on to the next compound.
Incoming: So what does the record say about log1/Ki for CCOC(=O)[C@@H](Cc1ccc(O)cc1)NC(=O)c1cccnc1 ?
Outgoing: 3.1

---

- method: Binding affinity to chymotrypsin (unknown origin)
- recorded.conditions: Homo sapiens
measurement.kind: log(1/Km)
Write the value as a bare number.

Solved entries (count: 6):
INSERT INTO results (item_smiles, measurement_kind, quantitative_readout) VALUES
  ('O=C(CNC(=O)c1ccccc1)Oc1cccc([N+](=O)[O-])c1', 'log(1/Km)', 4.17),
  ('COC(=O)[C@@H](C)NC(=O)c1cccs1', 'log(1/Km)', 2.16),
  ('C[C@@H](NC=O)C(=O)Oc1ccc([N+](=O)[O-])cc1', 'log(1/Km)', 5.21),
  ('CC(C)OC(=O)CNC(=O)c1ccccc1', 'log(1/Km)', 2.69),
  ('CCC[C@H](NC(=O)CCl)C(=O)OC', 'log(1/Km)', 2.3),
  ('COC(=O)[C@@H](NC(=O)CCl)C(C)C', 'log(1/Km)', 1.37);

Now, please, on to the next compound.
Incoming: So what does the record say about log(1/Km) for CCOC(=O)[C@H](Cc1ccc(O)cc1)NC(=O)c1ccccc1 ?
Outgoing: 4.66

---

- method: Binding affinity to alpha-chymotrypsin (unknown origin)
- recorded.conditions: Homo sapiens
Catalogue of molecules with associated log(1/Km)
Write the value as a bare number.

Solved entries (count: 3):
INSERT INTO assay_data (item_smiles, measurement_kind, quantitative_readout) VALUES
  ('COC(=O)CNC(C)=O', 'log(1/Km)', 1.51),
  ('COC(=O)CNC(=O)c1ccco1', 'log(1/Km)', 1.71),
  ('COC(=O)CNC(=O)c1ccccc1', 'log(1/Km)', 2.12);

Incoming: So what does the record say about log(1/Km) for COC(=O)CNC(=O)C(Cl)Cl ?
Outgoing: 1.66

Incoming: Item: CCSCC(=O)NCC(=O)OC
Outgoing: 1.98

Incoming: Item: COC(=O)CNC(=O)C(C)C
Outgoing: 1.34

Incoming: Item: CCOC(=O)NCC(=O)OC
Outgoing: 1.19

Incoming: Item: COC(=O)CNC(=O)c1c[nH]c2ccccc12
Outgoing: 2.86

Incoming: Item: COC(=O)CNS(C)(=O)=O
Outgoing: 1.07

Incoming: Item: COC(=O)CNC(=O)Cc1ccccc1
Outgoing: 2.1

Incoming: Item: COC(=O)CNC(=O)CCl
Outgoing: 1.16

Incoming: Item: COC(=O)[C@H](Cc1ccc(O)cc1)NC(C)=O
Outgoing: 3.49

Incoming: Item: CCC(=O)NCC(=O)OC
Outgoing: 1.42

Incoming: Item: COC(=O)CNC(=O)C(F)(F)F
Outgoing: 1.27

Incoming: Item: COC(=O)CNC(=O)c1ccncc1
Outgoing: 1.75

Incoming: Item: COC(=O)CNC(=O)c1cccnc1
Outgoing: 1.5

Incoming: Item: COC(=O)CNC(=O)CC(C)C
Outgoing: 1.62

Incoming: Item: COC(=O)CNC(=O)c1ccc(N)cc1
Outgoing: 2.08

Incoming: Item: COC(=O)CNC(=O)c1ccccn1
Outgoing: 2
